Sourced from the supplement of paper PMC10307832

Tested on: NCI-H1650
assay summary: relative viability (nuclei count vs DMSO), 5 days (fraction); higher = more cells survive
condition notes: first compound 0.8 µM
Reported relative viability values for the following compounds.
Lab note: record just the number, no unit beside it.

Item: O=c1cc(-c2cccc3c2Sc2ccccc2S3)oc(N2CCOCC2)c1 + Nc1ncn([C@H]2C[C@H](O)[C@@H](CO)O2)c(=O)n1 [Decitabine] (partner 2 µM) | relative viability: 0.416

Item: O=c1cc(-c2cccc3c2Sc2ccccc2S3)oc(N2CCOCC2)c1 + CC(=O)c1c(C)c2cnc(Nc3ccc(N4CCNCC4)cn3)nc2n(C2CCCC2)c1=O [Palbociclib] (partner 0.5 µM) | relative viability: 0.284

Item: COc1nc(C)cnc1NS(=O)(=O)c1cccnc1-c1ccc(-c2nnco2)cc1 [Zibotentan] + COc1cc2c(Oc3ccc(NC(=O)C4(C(=O)Nc5ccc(F)cc5)CC4)cc3F)ccnc2cc1OCCCN1CCOCC1 [Foretinib] (partner 0.25 µM) | relative viability: 1.29
